Target: A-II-receptor (Bos taurus, UniProt P25104)
Construct: An A-II-receptor was prepared from the membrane fraction of bovine adrenal cortex
Sequence (P25104 1-359): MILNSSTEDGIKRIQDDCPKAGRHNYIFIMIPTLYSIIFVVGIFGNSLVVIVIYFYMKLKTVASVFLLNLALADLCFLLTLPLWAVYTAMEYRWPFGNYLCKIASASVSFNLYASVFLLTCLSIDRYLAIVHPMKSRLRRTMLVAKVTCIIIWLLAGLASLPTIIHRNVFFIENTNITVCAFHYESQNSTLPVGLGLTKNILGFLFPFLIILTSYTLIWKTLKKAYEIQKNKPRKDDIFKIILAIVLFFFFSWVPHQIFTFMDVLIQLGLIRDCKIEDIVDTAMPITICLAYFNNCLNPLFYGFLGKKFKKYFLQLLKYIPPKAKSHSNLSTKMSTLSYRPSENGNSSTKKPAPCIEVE
Assay: displacement of 125I-angiotensin II from bovine adrenal cortex membranes
Format: binding, membrane fraction
Conditions: read-out: Radioreceptor Assay (%) / 1X10⁻⁷M
assay_readout: inhibition at 0.1 µM
A complete answer gives the number followed by the unit.

Some solved entries appear below for comparison.
CCc1nc2cccnc2n1Cc1ccc(-c2ccccc2-c2nnn[nH]2)cc1 [compound 9, 1/2 EtOAc]
50%
CCCCc1nc2cc(C)cnc2n1Cc1ccc(-c2ccccc2-c2nnn[nH]2)cc1 [compound 15, 0.3 H2O]
32%
CCCCc1nc2ncccc2n1Cc1ccc(-c2ccccc2-c2nnn[nH]2)cc1 [compound 4, 0.4 H2O]
5%
CCCCc1nc2cc(Br)c(C)nc2n1Cc1ccc(-c2ccccc2-c2nnn[nH]2)cc1 [compound 24]
0%
CCCCc1nc2ccncc2n1Cc1ccc(-c2ccccc2-c2nnn[nH]2)cc1 [compound 14, 0.2 H2O]
9%

The reported value for CCCCc1nc2ncc(C)cc2n1Cc1ccc(-c2ccccc2-c2nnn[nH]2)cc1 [compound 16, 0.4 H2O] in terms of inhibition at 0.1 µM is 0%

Measured inhibition at 0.1 µM of CCCCc1nc2cnccc2n1Cc1ccc(-c2ccccc2-c2nnn[nH]2)cc1 [compound 13, 0.2 H2O] : 1%

Per the records, this compound ( CCCCc1nc2nccnc2n1Cc1ccc(-c2ccccc2-c2nnn[nH]2)cc1 [compound 6, 0.4 H2O] ) has inhibition at 0.1 µM equal to 43%

Please fill in: inhibition at 0.1 µM reported for CCCCc1nc2cccnc2n1Cc1ccc(-c2ccccc2-c2nnn[nH]2)cc1 [compound 3] = 63%

Kindly note the recorded inhibition at 0.1 µM for CCCc1nc2ccc(OC)nc2n1Cc1ccc(-c2ccccc2-c2nnn[nH]2)cc1 [compound 23, 0.3 H2O] , which is 32%

====

Biological target: A-II-receptor (Bos taurus)
Construct: An A-II-receptor was prepared from the membrane fraction of bovine adrenal cortex
Assay: displacement of 125I-angiotensin II from bovine adrenal cortex membranes
Type: binding, membrane fraction
Conditions: read-out: Radioreceptor Assay (%) / 1X10⁻⁶M
Listing of entries alongside the reported inhibition at 1 µM.
Write the number in % without appending the unit.

CCCCc1nc2cc(C)cnc2n1Cc1ccc(-c2ccccc2-c2nnn[nH]2)cc1
75

Given item `CCCCc1nc2nccnc2n1Cc1ccc(-c2ccccc2-c2nnn[nH]2)cc1` , the value recorded as its inhibition at 1 µM is 81

The compound `CCCCc1nc2cccnc2n1Cc1ccc(-c2ccccc2-c2nnn[nH]2)cc1` showed inhibition at 1 µM equal to 92

In plain terms, `CCCCc1nc2cc(Br)c(C)nc2n1Cc1ccc(-c2ccccc2-c2nnn[nH]2)cc1` has a documented inhibition at 1 µM of 9

According to the records, this compound `CCCCc1nc2cnccc2n1Cc1ccc(-c2ccccc2-c2nnn[nH]2)cc1` displays inhibition at 1 µM of 44

====

Molecular target: A-II-receptor (Bos taurus)
Construct: An A-II-receptor was prepared from the membrane fraction of bovine adrenal cortex
Experiment: displacement of 125I-angiotensin II from bovine adrenal cortex membranes
Assay type: binding, membrane fraction
Settings: read-out: Radioreceptor Assay (%) / 1X10⁻⁶M
inhibition at 1 µM values by entry
Response body: numeric value in %, unit text excluded.

CCCCc1nc2ncc(C)cc2n1Cc1ccc(-c2ccccc2-c2nnn[nH]2)cc1
32
CCCc1nc2ccc(OC)nc2n1Cc1ccc(-c2ccccc2-c2nnn[nH]2)cc1
75
CCc1nc2cccnc2n1Cc1ccc(-c2ccccc2-c2nnn[nH]2)cc1
84
CCCCc1nc2ccncc2n1Cc1ccc(-c2ccccc2-c2nnn[nH]2)cc1
56

Now for the compound whose inhibition at 1 µM we want.
inhibition at 1 µM recorded for this compound, `CCCCc1nc2ncccc2n1Cc1ccc(-c2ccccc2-c2nnn[nH]2)cc1` , is 48
